Test system: UO-31 renal
Protocol Text: NCI-60 one-dose screen, 48 h
Condition Info: 10 µM unless noted
The panel holds about 83,000 compounds, 20% with a hit somewhere; the sample as a whole holds those more often. Calls of active or inactive are those of the source. The calls were made as follows: active = growth percent below 10; inactive = the rest.
Respond with a class label; see active, inactive

Reference set (8 entries):
INSERT INTO results (molecule, target_entity, cat) VALUES
  ('C[C@@H]1CCC[C@H]1CC(N)C(=O)O (stereo partly drawn)', 'UO-31 renal', 'inactive'),
  ('Cc1cccnc1NC(=S)Nc1ncccc1C', 'UO-31 renal', 'inactive'),
  ('Cc1cc(=O)[nH]c2c(C#N)cnn12', 'UO-31 renal', 'inactive'),
  ('Cc1ccc(C(C(N)=O)C(C(N)=O)c2ccccc2)cc1 (stereo not drawn)', 'UO-31 renal', 'inactive'),
  ('CC(C)NC1CCC(Nc2ccnc3cc(Cl)ccc23)CC1 (stereo not drawn)', 'UO-31 renal', 'inactive'),
  ('CCCCCCC1(C)NCCO1 (stereo not drawn)', 'UO-31 renal', 'inactive'),
  ('Cc1ccc(-c2cc(-c3ccc(Cl)cc3)nc(NC(=O)c3cccnc3)n2)cc1', 'UO-31 renal', 'inactive'),
  ('CCOC(=O)c1cc2c(=O)oc3ccccc3c2oc1=O', 'UO-31 renal', 'inactive');

Identify the outcome logged in this assay for the molecule shown: C#Cc1cccc(Nc2ncnc3ccc(-c4cnc(N)nc4)cc23)c1
active

How did this test come out for CCCCOC(=O)OCc1cc(=O)c(O)co1 ?
inactive

Please state the recorded outcome for this molecule: O=C(CSc1nc2ccc([N+](=O)[O-])cc2[nH]1)Nc1cccc(C(F)(F)F)c1
active

What is the recorded call for this molecule in the test? CCNC(=O)c1[nH]cc(-c2ccccc2)c1-c1cc(OC)c2c(c1OC)OCO2
inactive

---

Test system: MOLT-4 leukemia
Protocol Text: NCI-60 one-dose screen, 48 h (100 = growth as untreated, 0 = no growth, -100 = all killed)
Condition Info: 10 µM unless noted
This is part of a sample that, as a whole, favours compounds with a hit. Of some 83,000 tested, about 20% had one in any assay.
Threshold check on growth: strictly below 80% is 1; on or above 80% is -1.

Look over these answered cases.
INSERT INTO results (molecule, cat) VALUES
  ('N#CC1=C(c2ccc(Cl)cc2)Nc2c(c(-c3ccc(Cl)cc3)nn2-c2ccccc2)C12C(=O)Nc1ccc(Cl)cc12 (stereo unspecified)', 1),
  ('Brc1c2c(c(Br)c3ccccc13)CCCC2', -1);

Problem: For the molecule CC(C)N1CCN(Cc2ccc3c(NNC(=O)c4ccccc4)nc4cc(F)ccc4n23)CC1 , is growth under 80%?
1

Item CC(=O)n1nc(C(=O)OC(C)C)c2cc(C)c(C)cc21 : growth beneath 80%, strictly?
-1

Confirm or reject: growth of CCc1ccc(Oc2cn[nH]c2-c2ccc(OCCc3ccc(F)cc3)cc2O)cc1 lies strictly below 80%
-1

For Fc1ccc2[nH]cc(-c3nonc3-c3c[nH]c4ccc(Br)cc34)c2c1 , is the recorded growth below the cut-off of 80%?
1

---

Entries and their measured growth follow.
Tested on: HS 578T breast
Protocol Text: NCI-60 one-dose screen, 48 h (100 = growth as untreated, 0 = no growth, -100 = all killed)
Condition Info: 10 µM unless noted
The panel holds about 83,000 compounds, 20% with a hit somewhere; the sample as a whole holds those more often.
Express it in %; write the number only.

So what does the record say about growth for N#C/C(=C\c1ccc(Br)cc1)n1nnc2ccc(F)cc21 ?
3.56

For the compound shown here, CCOC(=O)/C=C1\S/C(=N\Nc2cc(=O)[nH]c3ccc(Cl)cc23)N(c2ccccc2)C1=O , give the reported growth.
99.8

For the compound shown here, Oc1c(Cl)cc(Cl)c2ccc(Cn3cc(-c4cc(C(F)(F)F)cc(C(F)(F)F)c4)nn3)nc12 , give the reported growth.
94.9

Can you share its growth? I mean this compound: CSc1nc2sc3c(c2c(=O)n1-c1ccc([N+](=O)[O-])cc1)CCCCC3
82.3

// growth lookup, key: CS(=O)(=O)Nc1cc(-c2ccc3ncnc(Nc4ccc5c(cnn5Cc5ccccn5)c4)c3c2)cnc1Cl
25.4

# input compound: O=C(Cn1c2c(c3ccccc31)CCCC2)Nc1ccc(-c2nc3ccccc3s2)cc1 ; wanted: its growth
112

Which growth is listed for CCOC(=O)C1=C(NC)OCC1=O ?
94.7

Field request: growth | item: CN1CCN(c2ccc(C(=O)Nc3cccc(C#Cc4cccc5[nH]nc(N)c45)c3)cc2C(F)(F)F)CC1
-26

# get_value(readout='growth', item= COc1ccc(C(=O)Nc2cccc(C3CC(=O)c4c(cc(OC)c(OC)c4OC)O3)c2)cc1 (centres undefined) )
5.72

---

Test system: KM12 colon
Protocol Text: NCI-60 one-dose screen, 48 h
Condition Info: 10 µM unless noted
The panel holds about 83,000 compounds, 20% with a hit somewhere; the sample as a whole holds those more often. Active and inactive are the calls of the source. The calls were made as follows: active = growth percent below 10; inactive = the rest.
Write down one outcome, taken from active, inactive

Worked examples, 6 compounds total:
INSERT INTO measurements (mol, target_entity, cat) VALUES
  ('O=C(Cc1ccccc1)Nc1nc(O)c(/C=C2\C(=O)C=Cc3ccccc32)s1', 'KM12 colon', 'inactive'),
  ('Cn1cc(-c2nc(-c3c[nH]c4ccncc34)cs2)c2ccccc21', 'KM12 colon', 'inactive'),
  ('CCOP(=O)(OCC)c1nc(-c2ccccc2)oc1NCc1cccnc1', 'KM12 colon', 'inactive'),
  ('COc1cccc(/C=C/C(=O)c2cc3c(N)c(C(=O)Nc4ccccc4)sc3nc2C)c1', 'KM12 colon', 'inactive'),
  ('COc1cc(-c2nc(SCC(C)C)nc(Nc3cccc4ccccc34)c2C#N)cc(OC)c1OC', 'KM12 colon', 'inactive'),
  ('Cc1cccc2c1NC(=O)C2(c1ccc(O)cc1)c1ccc(O)cc1', 'KM12 colon', 'inactive');

What was the test verdict on COC(=O)CCC(=O)C(=O)OC ?
active

Which outcome was assigned to COP(=O)(OC)C(C)(C)CC(=O)CC(C#N)(C#N)C(C#N)C#N in this test?
inactive

Which outcome was entered for the compound CC(C)c1ccc(NC(=O)Nc2ccc(NC(=O)CCCC(=O)NOCc3ccccc3)cc2)cc1 in this test?
inactive

How did this test come out for CN(C)c1ccc(Nc2cc(-c3cccc(OC(F)(F)F)c3)nc3ccc(N4CCCC4)cc23)cc1 ?
active

---

Tested on: OVCAR-4 ovarian
Protocol Text: NCI-60 one-dose screen, 48 h
Condition Info: 10 µM unless noted
About 83,000 compounds went through this panel and 20% of them were active in at least one assay; those are over-represented in the sample as a whole. Calls of active or inactive are those of the source. Rule for the calls: active = growth percent below 10; inactive = the rest.
API: response.call in active, inactive

Consider the worked cases shown below.
INSERT INTO measurements (compound, target_entity, cat) VALUES
  ('O=C1CNC(c2ccccc2)C(c2ccccc2)N1 (stereo not given)', 'OVCAR-4 ovarian', 'inactive'),
  ('N#CC1C=CN(CC(N)=O)c2ccc3cccnc3c21 (stereo not given)', 'OVCAR-4 ovarian', 'inactive'),
  ('COc1cccc([C@H]2c3[nH]c4ccccc4c3C[C@H]3C(=O)N(CCCCCCC(=O)NO)CC(=O)N23)c1', 'OVCAR-4 ovarian', 'inactive');

What outcome does the record of this test show for CC(C)c1ccc(NC(=O)Nc2ccc(NC(=O)CCCC(=O)NOCc3ccccc3)cc2)cc1 ?
inactive

Status in this test for COc1ccc(C(=O)Nc2ncc(Cc3ccc(F)cc3)s2)cc1 ?
inactive

Recorded test outcome, item COC(=O)c1cc(-c2ccc(S(C)(=O)=O)cc2)[nH]c1N/N=C/c1c(Cl)cccc1Cl
inactive

Record request — test call for C=CC(=O)NCc1ccc(Nc2nccc(-c3ccc(N4CCCC4)c(C#N)c3)n2)cc1
inactive

Tell me the recorded outcome of this test for CCn1c(SCC(=O)c2ccc(Br)cc2)nnc1-c1ccncc1 .
inactive

Recorded call for O=C(NCCCN1CCOCC1)c1cccc(N2C(=O)/C(=C/c3ccc(F)cc3)SC2=S)c1 ?
inactive

Answer briefly: the call reported for CCOC(=O)c1nc(Nc2ccc(NC(=O)Nc3ccc(F)cc3)cc2)c2ccccc2n1 in this assay.
inactive

Record lookup: outcome of this test for CC(C)CCNC(=O)Cn1cccc(NC(=O)OCc2ccccc2)c1=O ?
inactive

Please share the test call associated with Cc1ccc(-c2cc(-c3ccc(Cl)cc3)nc(NC(=O)c3cccnc3)n2)cc1 .
inactive

// param item: CCNC(=O)c1[nH]cc(-c2ccccc2)c1-c1cc(OC)c2c(c1OC)OCO2 ; yields the recorded call
inactive

Per the assay record, what outcome was assigned to CC(C)=NNc1ccccn1 ?
inactive

What is the recorded call for this compound in the test? CC1=Nc2cnc(Nc3ccc(OCCN4CCCCC4)cc3)nc2Nc2ccccc21
inactive

Could you kindly confirm the outcome this assay logged for COc1cc(-c2nc3cc(Cl)c(Cl)cc3[nH]2)ccc1OCC(=O)N=Nc1c(O)[nH]c2ccc([N+](=O)[O-])cc12 ?
inactive

Outcome logged for COP(=O)(OC)C(C)(C)CC(=O)CC(C#N)(C#N)C(C#N)C#N in this assay:
inactive

Answer briefly: the call reported for Nc1c(C(=O)Nc2ccccc2Cl)sc2nc3c(cc12)C(O)CCC3 (stereo not given) in this assay.
inactive

Just curious, what result did CCN(c1ccc(Cl)cc1)c1nc(-c2ccc([N+](=O)[O-])cc2)cs1 get here?
inactive

Hello, I am checking results. What call was entered for CC(C)(C)c1cc(-c2nc3ccc(N4CCN(S(C)(=O)=O)CC4)cc3[nH]2)cc(C(C)(C)C)c1O ?
inactive

Returns: the outcome recorded for Clc1ccc2c(c1)N(c1ncnc3ccc(-c4cnc5[nH]ncc5c4)cc13)CC2 in this assay.
inactive

What was the test verdict on CCc1ccc(Oc2cn[nH]c2-c2ccc(OCCc3ccc(F)cc3)cc2O)cc1 ?
inactive

Outcome logged for O=c1oc2ccc([N+](=O)[O-])cc2cc1Br in this assay:
inactive
